# credit: paper PMC9656319

# Measurement description: Stability of the analytes in spiked plasma, brain, kidney and spleen matrices (autosampler, long-term, freeze-thaw)
# Type: physicochemical, mice
# Measurement parameters: kidney, nominal 0.3 µg/mL, −70 °C for 30 days
Property name: Stability Long-Term RE (%)
Reply with just the number (in %).

[ask] Supply measured Stability Long-Term RE (%) of COc1cc2ccc(=O)oc2cc1OC in your reply.
[reply] 3.92

[ask] Supply measured Stability Long-Term RE (%) of COc1cc2ccc(=O)oc2c(OC)c1OC in your reply.
[reply] 5.19

[ask] Supply measured Stability Long-Term RE (%) of COc1cc2ccc(=O)oc2cc1OCC=C(C)C in your reply.
[reply] 3.02

[ask] Supply measured Stability Long-Term RE (%) of COc1ccc2ccc(=O)oc2c1 in your reply.
[reply] 5.12

[ask] Supply measured Stability Long-Term RE (%) of CC(C)=CCOc1ccc2ccc(=O)oc2c1 in your reply.
[reply] 5.54

###

# Measurement description: Stability of the analytes in spiked plasma, brain, kidney and spleen matrices (autosampler, long-term, freeze-thaw)
# Assay type: physicochemical, mice
# Measurement parameters: brain, nominal 30.0 µg/mL, processed samples in autosampler vials 24 h room temperature
Property name: Stability Autosampler RE (%)
Reply with just the number (in %).

[ask] Supply measured Stability Autosampler RE (%) of COc1ccc2ccc(=O)oc2c1 in your reply.
[reply] 3.86

[ask] Supply measured Stability Autosampler RE (%) of CC(C)=CCOc1ccc2ccc(=O)oc2c1 in your reply.
[reply] 4.57

[ask] Supply measured Stability Autosampler RE (%) of COc1cc2ccc(=O)oc2c(OC)c1OC in your reply.
[reply] 3.21

[ask] Supply measured Stability Autosampler RE (%) of COc1cc2ccc(=O)oc2cc1OCC=C(C)C in your reply.
[reply] 4.05

[ask] Supply measured Stability Autosampler RE (%) of COc1cc2ccc(=O)oc2cc1OC in your reply.
[reply] 4.78

###

For each entry below, report its Stability Long-Term RE (%) value.
# Measurement description: Stability of the analytes in spiked plasma, brain, kidney and spleen matrices (autosampler, long-term, freeze-thaw)
# Assay type: physicochemical, mice
# Measurement parameters: spleen, nominal 3.0 µg/mL, −70 °C for 30 days
Reply with just the number (in %).

[ask] Supply measured Stability Long-Term RE (%) of COc1cc2ccc(=O)oc2c(OC)c1OC in your reply.
[reply] 7.09

[ask] Supply measured Stability Long-Term RE (%) of CC(C)=CCOc1ccc2ccc(=O)oc2c1 in your reply.
[reply] 7.56

[ask] Supply measured Stability Long-Term RE (%) of COc1ccc2ccc(=O)oc2c1 in your reply.
[reply] 7.44

[ask] Supply measured Stability Long-Term RE (%) of COc1cc2ccc(=O)oc2cc1OCC=C(C)C in your reply.
[reply] 3.67

[ask] Supply measured Stability Long-Term RE (%) of COc1cc2ccc(=O)oc2cc1OC in your reply.
[reply] 2.22

###

# Measurement description: Stability of the analytes in spiked plasma, brain, kidney and spleen matrices (autosampler, long-term, freeze-thaw)
# Assay type: physicochemical, mice
# Measurement parameters: plasma, nominal 3.0 µg/mL, −70 °C for 30 days
# Experimental: The stability of the compounds obtained from each enriched matrices at the QC concentrations was evaluated under different conditions that covered the processing, handling, and storage phases that could be developed throughout the study. […] The stability of the analytes in plasma, brain, kidneys, and spleen was evaluated by the analyzed concentrations of QC subjected to three different conditions. […] Freeze-thaw stability was determined after three cycles (−4 °C to 25 °C) on three consecutive days.
Param threshold (-10%) applies to Stability Long-Term RE (%); output met when value >= threshold, not met when value < threshold.

[ask] Given the entry COc1cc2ccc(=O)oc2cc1OC [SC, scoparone] , answer whether its Stability Long-Term RE (%) meets or surpasses -10%.
[reply] not met

[ask] Given the entry CC(C)=CCOc1ccc2ccc(=O)oc2c1 [PU, 7-O-prenylumbelliferone] , answer whether its Stability Long-Term RE (%) meets or surpasses -10%.
[reply] not met

[ask] Given the entry COc1ccc2ccc(=O)oc2c1 [HR, herniarin] , answer whether its Stability Long-Term RE (%) meets or surpasses -10%.
[reply] met

[ask] Given the entry COc1cc2ccc(=O)oc2c(OC)c1OC [DF, dimethylfraxetin] , answer whether its Stability Long-Term RE (%) meets or surpasses -10%.
[reply] met

[ask] Given the entry COc1cc2ccc(=O)oc2cc1OCC=C(C)C [PE, 7-O-prenylscopoletin] , answer whether its Stability Long-Term RE (%) meets or surpasses -10%.
[reply] met

###

# Measurement description: Pharmacokinetic study in plasma after oral hexanic extract of Tagetes lucida, healthy and LPS-damaged mice
# Type: in vivo, ICR mice
# Measurement parameters: ICR, mouse, plasma, po, 10 mg/kg, LPS-damaged ICR mice, 10 mg/kg oral hexanic extract, mean ± SEM (n = 5)
Param threshold (40 min) applies to Tmax; output met when value >= threshold, not met when value < threshold.

[ask] Given the entry COc1ccc2ccc(=O)oc2c1 , answer whether its Tmax meets or surpasses 40 min.
[reply] not met

[ask] Given the entry COc1cc2ccc(=O)oc2cc1OC , answer whether its Tmax meets or surpasses 40 min.
[reply] met

[ask] Given the entry COc1cc2ccc(=O)oc2cc1OCC=C(C)C , answer whether its Tmax meets or surpasses 40 min.
[reply] met

[ask] Given the entry CC(C)=CCOc1ccc2ccc(=O)oc2c1 , answer whether its Tmax meets or surpasses 40 min.
[reply] met

[ask] Given the entry COc1cc2ccc(=O)oc2c(OC)c1OC , answer whether its Tmax meets or surpasses 40 min.
[reply] not met

###

# Measurement description: Stability of the analytes in spiked plasma, brain, kidney and spleen matrices (autosampler, long-term, freeze-thaw)
# Format: physicochemical, mice
# Measurement parameters: plasma, nominal 0.3 µg/mL, processed samples in autosampler vials 24 h room temperature
Property name: Stability Autosampler RE (%)
Reply with just the number (in %).

[ask] Supply measured Stability Autosampler RE (%) of COc1cc2ccc(=O)oc2c(OC)c1OC [DF, dimethylfraxetin] in your reply.
[reply] 2.59

[ask] Supply measured Stability Autosampler RE (%) of CC(C)=CCOc1ccc2ccc(=O)oc2c1 [PU, 7-O-prenylumbelliferone] in your reply.
[reply] -6.02

[ask] Supply measured Stability Autosampler RE (%) of COc1cc2ccc(=O)oc2cc1OC [SC, scoparone] in your reply.
[reply] 10.18

[ask] Supply measured Stability Autosampler RE (%) of COc1cc2ccc(=O)oc2cc1OCC=C(C)C [PE, 7-O-prenylscopoletin] in your reply.
[reply] -4.00

[ask] Supply measured Stability Autosampler RE (%) of COc1ccc2ccc(=O)oc2c1 [HR, herniarin] in your reply.
[reply] 8.34

###

# Measurement description: Stability of the analytes in spiked plasma, brain, kidney and spleen matrices (autosampler, long-term, freeze-thaw)
# Type: physicochemical, mice
# Measurement parameters: plasma, nominal 0.3 µg/mL, −70 °C for 30 days
Property name: Stability Long-Term RE (%)
Reply with just the number (in %).

[ask] Supply measured Stability Long-Term RE (%) of COc1cc2ccc(=O)oc2c(OC)c1OC in your reply.
[reply] -6.74

[ask] Supply measured Stability Long-Term RE (%) of COc1cc2ccc(=O)oc2cc1OC in your reply.
[reply] -3.50

[ask] Supply measured Stability Long-Term RE (%) of CC(C)=CCOc1ccc2ccc(=O)oc2c1 in your reply.
[reply] -8.22

[ask] Supply measured Stability Long-Term RE (%) of COc1ccc2ccc(=O)oc2c1 in your reply.
[reply] 9.39

[ask] Supply measured Stability Long-Term RE (%) of COc1cc2ccc(=O)oc2cc1OCC=C(C)C in your reply.
[reply] -6.86

###

For each entry below, report its Stability Long-Term RE (%) value.
# Measurement description: Stability of the analytes in spiked plasma, brain, kidney and spleen matrices (autosampler, long-term, freeze-thaw)
# Assay type: physicochemical, mice
# Measurement parameters: brain, nominal 3.0 µg/mL, −70 °C for 30 days
Reply with just the number (in %).

[ask] Supply measured Stability Long-Term RE (%) of CC(C)=CCOc1ccc2ccc(=O)oc2c1 [PU, 7-O-prenylumbelliferone] in your reply.
[reply] -5.42

[ask] Supply measured Stability Long-Term RE (%) of COc1cc2ccc(=O)oc2cc1OC [SC, scoparone] in your reply.
[reply] -0.94

[ask] Supply measured Stability Long-Term RE (%) of COc1cc2ccc(=O)oc2c(OC)c1OC [DF, dimethylfraxetin] in your reply.
[reply] 0.46

[ask] Supply measured Stability Long-Term RE (%) of COc1cc2ccc(=O)oc2cc1OCC=C(C)C [PE, 7-O-prenylscopoletin] in your reply.
[reply] -3.44

[ask] Supply measured Stability Long-Term RE (%) of COc1ccc2ccc(=O)oc2c1 [HR, herniarin] in your reply.
[reply] -0.98

###

# Measurement description: Stability of the analytes in spiked plasma, brain, kidney and spleen matrices (autosampler, long-term, freeze-thaw)
# Format: physicochemical, mice
# Measurement parameters: plasma, nominal 3.0 µg/mL, three cycles (−4 °C to 25 °C)
For each entry below, report its Stability Freeze-Thaw RE (%) value.
Reply with just the number (in %).

[ask] Supply measured Stability Freeze-Thaw RE (%) of COc1ccc2ccc(=O)oc2c1 in your reply.
[reply] -7.90

[ask] Supply measured Stability Freeze-Thaw RE (%) of COc1cc2ccc(=O)oc2cc1OCC=C(C)C in your reply.
[reply] -2.01

[ask] Supply measured Stability Freeze-Thaw RE (%) of COc1cc2ccc(=O)oc2c(OC)c1OC in your reply.
[reply] 2.47

[ask] Supply measured Stability Freeze-Thaw RE (%) of COc1cc2ccc(=O)oc2cc1OC in your reply.
[reply] 2.70

[ask] Supply measured Stability Freeze-Thaw RE (%) of CC(C)=CCOc1ccc2ccc(=O)oc2c1 in your reply.
[reply] -9.78
